# Tested System: human TGR5 (Homo sapiens, UniProt Q8TDU6)
# Construct: expressed in transfected cells
# Sequence (Q8TDU6 whole entry): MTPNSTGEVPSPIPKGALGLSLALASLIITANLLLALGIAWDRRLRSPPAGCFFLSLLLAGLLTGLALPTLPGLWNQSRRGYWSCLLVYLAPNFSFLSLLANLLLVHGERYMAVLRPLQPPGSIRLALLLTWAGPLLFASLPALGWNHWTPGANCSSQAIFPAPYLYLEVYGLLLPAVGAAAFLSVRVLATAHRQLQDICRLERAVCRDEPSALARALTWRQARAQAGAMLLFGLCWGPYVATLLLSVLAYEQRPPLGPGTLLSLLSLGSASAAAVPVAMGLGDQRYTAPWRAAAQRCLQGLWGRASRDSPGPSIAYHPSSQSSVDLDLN
# Assay Procedure: Cell-based TGR5 assay, HEK293 cells stably expressing human TGR5, cAMP by HTRF
# Particulars: HEK293 cells stably expressing human TGR5, 30 min at 37 C, 0.05 nM to 10 μM, read-out: pEC50 Human TGR5 (converted)
Readout Name: EC50

## Input Answer with the recorded EC50 for the compound listed here: COC(=O)[C@@H](CCCCN)NC(=O)NCCCCCc1cc(Cl)c(CN2CSC[C@H]2C(=O)N2CCN(C3CC3)c3ccccc32)cc1Cl [Example 275]
## Output 126 to 1000 nM

## Input Note down EC50 recorded for NCCCc1ccc(Cl)c(CNC2(C(=O)N3CCN(C4CC4)c4ccccc43)CC2)c1 [Example 68]
## Output 1260 to 50100 nM

## Input Tell me measured EC50 for CC(C)(OCc1cc(Cl)ccc1Cl)C(=O)N1CCN(C2CC2)c2ccccc21 [Example 1] please.
## Output 126 to 1000 nM

## Input Assign EC50 to the following record: O=C(NCCCc1cc(Cl)c(CNC2(C(=O)N3CCN(C4CC4)c4ccccc43)CC2)cc1Cl)NCCOCCOCCNC(=O)NCCCc1cc(Cl)c(CNC2(C(=O)N3CCN(C4CC4)c4ccccc43)CC2)cc1Cl [Example 212]
## Output 1260 to 50100 nM

## Input Specify measured EC50 for CN(C(=O)C1(OCc2cc(Cl)c(CCCCNC(=O)NC[C@H](O)[C@@H](O)[C@H](O)[C@H](O)CO)cc2Cl)CC1)c1ccccc1OC1CC1 [Example 257] .
## Output < 100 nM

## Input Specify measured EC50 for O=C([C@@H]1CCCCN1C(=O)c1cc(Cl)ccc1Cl)N1CCN(C2CC2)c2ccccc21 [Example 13] .
## Output 1260 to 50100 nM

## Input Fill in EC50 for record O=C(NC[C@H](O)[C@@H](O)[C@H](O)[C@H](O)CO)c1cnn(Cc2cc(Cl)c(CN3CSC[C@H]3C(=O)N3CCN(C4CC4)c4ccccc43)cc2Cl)c1 [Example 234]
## Output < 100 nM

## Input # return recorded EC50 for entry N#Cc1cccc(COC2(C(=O)N3CCN(C4CC4)c4ccccc43)CC2)c1 [Example 45]
## Output 126 to 1000 nM

## Input Tell us which EC50 value is on record for O=C(N1CCN(C2CC2)c2ccccc21)C1(OCc2cc(Cl)ccc2Cl)CCCCC1 [Example 242]
## Output 126 to 1000 nM

## Input Give the measured EC50 for CN(C[C@H](O)[C@@H](O)[C@H](O)[C@H](O)CO)C(=O)CN(CCCCCc1cc(Cl)c(CN2CSC[C@H]2C(=O)N2CCN(C3CC3)c3ccccc32)cc1Cl)CC(=O)O [Example 277]
## Output 126 to 1000 nM

## Input Give the reported EC50 for this compound. O=C(N1CCN(C2CC2)c2ccccc21)C1(OCc2cc(C(F)(F)F)ccc2Cl)CC1 [Example 43]
## Output < 100 nM

## Input Please report EC50 for the following compound: NCCCC[C@@H]1NC(=O)N(CCCCCc2cc(Cl)c(CN3CSC[C@H]3C(=O)N3CCN(C4CC4)c4ccccc43)cc2Cl)C1=O [Example 273]
## Output 126 to 1000 nM

## Input Recall and state the measured EC50 for COc1cccnc1N(C)C(=O)C1(OCc2cc(Cl)ccc2Cl)CC1 [Example 37] .
## Output 126 to 1000 nM

## Input Provide measured EC50 value, entry: CN(C[C@H](O)[C@@H](O)[C@H](O)[C@H](O)CO)C(=O)CCCOc1cc(Cl)c(CN2CSC[C@H]2C(=O)N2CCN(C3CC3)c3ccccc32)cc1Cl [Example 189]
## Output < 100 nM

## Input Kindly indicate its recorded EC50. Item: CN(C[C@H](O)[C@@H](O)[C@H](O)[C@H](O)CO)C(=O)CCCCc1cc(Cl)c(COC2(C(=O)N3CCN(C4CC4)c4ccccc43)CC2)cc1Cl [Example 192]
## Output < 100 nM

## Input Give the measured EC50 for CN(C[C@H](O)[C@@H](O)[C@H](O)[C@H](O)CO)C(=O)CCc1cc(Cl)c(CNC2(C(=O)N3CCN(C4CC4)c4ccccc43)CC2)cc1Cl [Example 91]
## Output 126 to 1000 nM

## Input Return reported EC50. Input compound: CN(C(=O)[C@@H]1CSCN1Cc1cc(Cl)ccc1Cl)c1ccccc1OC1CCC1 [Example 290]
## Output 126 to 1000 nM

## Input Input O=C(N1CCN(C2CC2)c2ccccc21)C1(NCc2cc(Cl)ccc2Cl)CCC1 [Example 56] , output reported EC50.
## Output < 100 nM

## Input Give the measured EC50 for O=C(N1CCN(C2CC2)c2ccccc21)C1(OCc2cc(Cl)ccc2C(F)(F)F)CC1 [Example 42]
## Output 126 to 1000 nM

## Input Determine from records and report EC50 for CN(C[C@H](O)[C@@H](O)[C@@H](O)[C@H](O)CO)C(=O)CCCCc1cc(Cl)c(CNC2(C(=O)N3CCN(C4CC4)c4ccccc43)CC2)cc1Cl [Example 220]
## Output < 100 nM

Cited source for all entries: patent US20150148311A1
